- target entity: Peroxisome proliferator-activated receptor delta (Homo sapiens) (UniProt Q03181)
- Sequence (Q03181 whole entry, looked up): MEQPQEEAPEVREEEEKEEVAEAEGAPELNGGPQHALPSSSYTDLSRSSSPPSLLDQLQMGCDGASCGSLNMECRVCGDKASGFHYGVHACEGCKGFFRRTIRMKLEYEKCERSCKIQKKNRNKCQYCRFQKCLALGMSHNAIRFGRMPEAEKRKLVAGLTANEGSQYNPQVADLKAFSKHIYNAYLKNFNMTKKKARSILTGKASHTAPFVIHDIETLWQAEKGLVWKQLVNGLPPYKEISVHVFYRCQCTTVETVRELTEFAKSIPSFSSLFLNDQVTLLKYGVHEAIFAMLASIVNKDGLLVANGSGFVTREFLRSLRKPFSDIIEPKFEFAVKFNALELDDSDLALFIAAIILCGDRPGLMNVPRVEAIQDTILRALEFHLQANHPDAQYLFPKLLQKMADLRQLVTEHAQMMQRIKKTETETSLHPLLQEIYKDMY
- experimental protocol: qHTS assay to identify small molecule antagonists of the peroxisome proliferator-activated receptor delta (PPARd) signaling pathway (AID 743215);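 note: cells stimulated with agonist L165041 at 300 nM final during compound exposure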
- experimental conditions: HEK293H PPARd-UAS-bla, beta-lactamase FRET ratio, antagonist, 17 h; series mostly up to 62 µM
- From the text: U.S. Tox21 Program National Center for Advancing Translational Sciences [NCATS] NIH Chemical Genomics Center [NCGC] U.S. Environmental Protection Agency [EPA] National Institutes of Environmental Health Sciences [NIEHS] National Toxicology Program [NTP] U.S. Food and Drug Administration [FDA] […]
Inconclusive results are not listed. The source made the active and inactive calls. Calls come from the whole dose curve; as a rule, active = well fitted inhibition curve with a large enough effect in the signal ratio in the repeat runs (not every such curve was filed as active); inconclusive = weak or mixed curves, or effect the other way; inactive = no such curve, though single readings can be large or run the other way; the % refers to the signal ratio.
Outcomes you can answer with include only these: true (1) = active, false (0) = inactive

Check the results log: what was the call for C#C[C@]1(OC(C)=O)CC[C@H]2[C@@H]3CCC4=C/C(=N/O)CC[C@@H]4[C@H]3CC[C@@]21CC ?
false (0)

Next molecule up: O=[N+]([O-])c1cccc(C(F)(F)F)c1
false (0)

Same for O[C@@H]([C@H](O)[C@H](O)CBr)[C@H](O)CBr
false (0)

Cool, now Sc1nc2ccccc2s1
true (1)

Thanks! And CC1(C)CCC[C@]2(C)[C@H]3CC(=O)O[C@]3(C)CC[C@@H]12 ?
false (0)

Would you mind doing c1cnccn1 as well?
false (0)

Quick one: CCCCCCCCCCCCOC(=O)c1ccc(O)cc1
false (0)

Would you mind doing CC/C=C\CCCCCO as well?
false (0)

Then this molecule: O=C(/C=C/c1ccc(O)c(O)c1)O[C@@H](C(=O)O)[C@@H](OC(=O)/C=C/c1ccc(O)c(O)c1)C(=O)O
false (0)

Item: C#C[C@]1(OC(C)=O)CC[C@H]2[C@@H]3CCC4=C[C@@H](OC(C)=O)CC[C@@H]4[C@H]3CC[C@@]21C
false (0)

Follow-up entry: [Cu+]
false (0)

Also Clc1nnc(Cl)c2ccccc12 ?
false (0)

Please answer likewise for CC(C)Cn1cnc2c(N)nc3ccccc3c21
false (0)

Quick one: CCc1cccc(CC)c1NC(=O)CN(CC(=O)O)CC(=O)O
false (0)

Try this molecule too: Cc1cc(C)c(/C=C2\C(=O)Nc3ccccc32)[nH]1
true (1)

What about CCCCCCOC(=O)C(C)CC (stereo not drawn) ?
false (0)

Now try CCCC[P+](C)(CCCC)CCCC .
false (0)

Similarly, O=C(O)c1cc(=O)c2ccccc2o1 ?
false (0)

The reported numbers originate from PubChem BioAssay (Tox21).
